Hello, the source for this data is patent US8168667B2, in case you need it.

target: human androgen receptor (hAR) (Homo sapiens); assay: Functional response test: hAR transactivation (luciferase reporter) in HALP2 cells; assay type: cell-based; conditions: antagonism; concentration which increases the EC50 of the DHT by a factor of 2, Schild regression; HALP2 cells
Please note: Fulfilled applies when KSchild (nM) potency is 20 nM or greater, and Not fulfilled applies otherwise.

-- ask # bool: KSchild (nM) potency of O=C1C(c2ccc(O)cc2)N(CCCCO)C(=O)N1c1ccc(F)c(F)c1 (centres unmarked) [Example 133] >= 20 nM
-- reply Fulfilled

-- ask Is it the case that CCOCCCN1C(=O)N(c2ccc(F)c(Cl)c2)C(=O)C1c1ccc(O)cc1 (centres unmarked) [Example 88] has KSchild (nM) potency reaching or exceeding 20 nM?
-- reply Fulfilled

-- ask Is KSchild (nM) potency at least 20 nM? Consider C#CCN1C(=O)N(c2ccc(F)c(C(F)(F)F)c2)C(=O)C1c1ccc(O)cc1 (centres unmarked) [Example 69]
-- reply Fulfilled

-- ask Could you verify whether the entry Cc1cc(Cl)ccc1N1C(=O)N(C)C(C)(c2ccc(O)cc2)C1=O (centres unmarked) [Example 28] shows KSchild (nM) potency of no less than 20 nM?
-- reply Fulfilled

-- ask In plain terms: is recorded KSchild (nM) potency at least 20 nM for CN1C(=O)N(c2ccc(Cl)c(Cl)c2)C(=O)C1c1cccc(O)c1 (centres unmarked) [Example 152] ?
-- reply Not fulfilled

-- ask Textbook exercise: given the entry COc1ccc(C2(CF)C(=O)N(c3ccc(Cl)c(Cl)c3)C(=O)N2C)cc1 (centres unmarked) [Example 169] , state whether its KSchild (nM) potency is greater than or equal to 20 nM.
-- reply Not fulfilled

-- ask Determine whether this molecule has KSchild (nM) potency no lower than 20 nM: O=C1C(c2ccc(O)cc2)N(Cc2ccsc2)C(=S)N1c1ccc(Cl)c(Cl)c1 (centres unmarked) [Example 19]
-- reply Fulfilled

-- ask Does the reported KSchild (nM) potency for CN(C)CCN1C(=O)N(c2ccc(F)c(C(F)(F)F)c2)C(=O)C1c1ccc(O)cc1 (centres unmarked) [Example 118] fall at or above the 20 nM mark?
-- reply Fulfilled

====

Molecular target: human androgen receptor (hAR) (Homo sapiens, UniProt P10275)
Sequence (P10275 1-920): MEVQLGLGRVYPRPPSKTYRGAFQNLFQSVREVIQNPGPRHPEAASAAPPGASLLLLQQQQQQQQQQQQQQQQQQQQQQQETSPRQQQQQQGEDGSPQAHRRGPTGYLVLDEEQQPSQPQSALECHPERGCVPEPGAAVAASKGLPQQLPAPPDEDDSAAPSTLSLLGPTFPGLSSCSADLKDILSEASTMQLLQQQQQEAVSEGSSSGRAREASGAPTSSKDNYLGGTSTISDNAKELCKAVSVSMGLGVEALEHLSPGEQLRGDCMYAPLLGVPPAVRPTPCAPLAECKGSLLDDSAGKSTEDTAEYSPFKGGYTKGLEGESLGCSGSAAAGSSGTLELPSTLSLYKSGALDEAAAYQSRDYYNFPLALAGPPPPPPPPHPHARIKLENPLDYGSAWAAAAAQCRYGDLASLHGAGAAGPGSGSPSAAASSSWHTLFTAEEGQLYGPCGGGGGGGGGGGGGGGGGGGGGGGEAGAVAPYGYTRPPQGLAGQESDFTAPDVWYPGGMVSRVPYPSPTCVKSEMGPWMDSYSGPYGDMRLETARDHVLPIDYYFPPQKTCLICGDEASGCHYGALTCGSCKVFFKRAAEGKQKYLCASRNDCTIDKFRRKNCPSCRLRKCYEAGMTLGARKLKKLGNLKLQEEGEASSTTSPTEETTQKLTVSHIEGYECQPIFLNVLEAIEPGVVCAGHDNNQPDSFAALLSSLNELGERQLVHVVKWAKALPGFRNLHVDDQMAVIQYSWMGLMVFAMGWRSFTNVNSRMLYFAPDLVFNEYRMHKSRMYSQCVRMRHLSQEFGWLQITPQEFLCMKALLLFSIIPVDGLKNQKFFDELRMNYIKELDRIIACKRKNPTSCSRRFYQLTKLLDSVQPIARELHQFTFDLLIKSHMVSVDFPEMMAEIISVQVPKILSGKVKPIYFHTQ
Experiment: Functional response test: hAR transactivation (luciferase reporter) in HALP2 cells
Type: cell-based
Conditions: agonism; HALP2 cells (HeLa, hAR + ARE-luciferase), 20 hours at 37° C.
Reported Endpoint: log10 EC50 (log10 of the value in nM)
Heads up: the numbers are on a log10 scale; they represent EC50 in nM.

-- ask Test system human androgen receptor (hAR) (Homo sapiens, UniProt P10275); read-out log10 EC50; what value for CN(C)CCN1C(=O)N(c2cccc(C(F)(F)F)c2)C(=O)C1c1ccc(O)cc1 (centres unmarked) ?
-- reply 2.63

-- ask GET /values?readout=log10 EC50&system=human androgen receptor (hAR) (Homo sapiens, UniProt P10275)&item= CCOC(=O)CCN1C(=O)N(c2ccc(F)c(F)c2)C(=O)C1c1ccc(O)cc1 (centres unmarked)
-- reply 2.30

-- ask log10 EC50 of N#CCN1C(=O)N(c2ccc(F)c(F)c2)C(=O)C1c1ccc(O)cc1 (centres unmarked) on human androgen receptor (hAR) (Homo sapiens, UniProt P10275)?
-- reply 3.18

-- ask // map CCOCCCN1C(=O)N(c2ccc(Cl)c(C(F)(F)F)c2)C(=O)C1c1ccc(O)cc1 (centres unmarked) to recorded log10 EC50 (system: human androgen receptor (hAR) (Homo sapiens, UniProt P10275))
-- reply 1.69

-- ask Which measured log10 EC50 belongs to C#CCN1C(=O)N(c2ccc(F)c(F)c2)C(=O)C1c1ccc(O)cc1 (centres unmarked) , tested on human androgen receptor (hAR) (Homo sapiens, UniProt P10275)?
-- reply 1.69

-- ask Quick check: log10 EC50 on human androgen receptor (hAR) (Homo sapiens, UniProt P10275), item CN1C(=O)N(c2ccc(F)c(F)c2)C(=O)C1c1ccc(O)cc1 (centres unmarked) ?
-- reply 1.89

-- ask For human androgen receptor (hAR) (Homo sapiens, UniProt P10275), provide log10 EC50 of C=CCN1C(=O)N(c2cccc(C(F)(F)F)c2)C(=O)C1c1ccc(O)cc1 (centres unmarked) please.
-- reply 1.42

-- ask Can you look up log10 EC50 on human androgen receptor (hAR) (Homo sapiens, UniProt P10275) for CN1C(=O)N(c2ccc(C(F)(F)F)cc2Cl)C(=O)C1(C)c1ccc(O)cc1 (centres unmarked) ?
-- reply 1.78

-- ask Short answer please: log10 EC50, human androgen receptor (hAR) (Homo sapiens, UniProt P10275), entry N#CCCN1C(=O)N(c2ccc(F)c(Cl)c2)C(=O)C1c1ccc(O)cc1 (centres unmarked)
-- reply 2.39

-- ask GET /values?readout=log10 EC50&system=human androgen receptor (hAR) (Homo sapiens, UniProt P10275)&item= O=C1C(c2ccc(O)cc2)N(Cc2ccc3c(c2)OCO3)C(=O)N1c1ccc(Cl)c(Cl)c1 (centres unmarked)
-- reply 1.84

-- ask Form field - read-out: log10 EC50; system: human androgen receptor (hAR) (Homo sapiens, UniProt P10275); submitted item: CCOCCCN1C(=O)N(c2ccc(F)c(Cl)c2)C(=O)C1c1ccc(O)cc1 (centres unmarked)
-- reply 1.54

-- ask Please state recorded log10 EC50 (tested on human androgen receptor (hAR) (Homo sapiens, UniProt P10275)) of CCOCCCN1C(=O)N(c2ccc(Cl)c(Cl)c2)C(=O)C1c1ccc(O)cc1 (centres unmarked)
-- reply 1.39

-- ask Which measured log10 EC50 belongs to CCOC(=O)CCN1C(=O)N(c2ccc(Cl)c(C(F)(F)F)c2)C(=O)C1c1ccc(O)cc1 (centres unmarked) , tested on human androgen receptor (hAR) (Homo sapiens, UniProt P10275)?
-- reply 2.09

-- ask Hi! What's the reported log10 EC50 for C#CCN1C(=S)N(c2ccc(Cl)c(Cl)c2)C(=O)C1(C)c1ccc(O)cc1 (centres unmarked) on human androgen receptor (hAR) (Homo sapiens, UniProt P10275)?
-- reply 1.40

-- ask API: value(readout=log10 EC50, system=human androgen receptor (hAR) (Homo sapiens, UniProt P10275)) for record N#CCN1C(=O)N(c2ccc(Cl)c(Cl)c2)C(=O)C1c1ccc(O)cc1 (centres unmarked)
-- reply 1.98

-- ask Give recorded log10 EC50 with human androgen receptor (hAR) (Homo sapiens, UniProt P10275) for the following compound: O=C1C(c2ccc(O)cc2)N(CCO)C(=O)N1c1ccc(F)c(C(F)(F)F)c1 (centres unmarked)
-- reply 2.15

-- ask For the record CN(C)CCN1C(=O)N(c2ccc(F)c(Cl)c2)C(=O)C1c1ccc(O)cc1 (centres unmarked) , what value of log10 EC50 is listed for human androgen receptor (hAR) (Homo sapiens, UniProt P10275)?
-- reply 2.45
